Molecular target: human MCH-2R (human, UniProt Q969V1 1-340)
Sequence (Q969V1 whole entry): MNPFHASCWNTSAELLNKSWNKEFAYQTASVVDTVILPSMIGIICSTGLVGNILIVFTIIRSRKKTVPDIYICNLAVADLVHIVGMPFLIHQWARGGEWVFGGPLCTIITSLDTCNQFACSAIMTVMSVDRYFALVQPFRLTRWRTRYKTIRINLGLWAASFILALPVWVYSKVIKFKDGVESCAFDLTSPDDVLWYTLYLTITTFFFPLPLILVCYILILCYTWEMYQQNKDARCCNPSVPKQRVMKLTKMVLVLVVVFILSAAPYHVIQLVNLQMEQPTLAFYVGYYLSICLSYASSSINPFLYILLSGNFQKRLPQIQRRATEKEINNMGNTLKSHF
Assay: cell-based or functional assay
Positions of bridges follow the written chain, without caps; N, C: chain ends.
TEST READOUT: Activation %, aequorin bioluminescence (%)
# output: bare number, implied unit %

Quick one: Activation %, aequorin bioluminescence for RCMLXRVYRPC (HELM PEPTIDE1{[ac].R.C.M.L.[Cit].R.V.Y.R.P.C.[am]}$PEPTIDE1,PEPTIDE1,3:R3-12:R3$$$V2.0; SMILES CSCC[C@@H]1NC(=O)[C@@H](NC(=O)[C@H](CCCNC(=N)N)NC(C)=O)CSSC[C@@H](C(N)=O)NC(=O)[C@@H]2CCCN2C(=O)[C@H](CCCNC(=N)N)NC(=O)[C@H](Cc2ccc(O)cc2)NC(=O)[C@H](C(C)C)NC(=O)[C@H](CCCNC(=N)N)NC(=O)[C@H](CCCNC(N)=O)NC(=O)[C@H](CC(C)C)NC1=O, also called Cit^10 peptide) [SEQ. ID. NO. 27 (Cit^10 analog of Ac-hMCH(6-16)-NH2)] ?
68

Quick one: Activation %, aequorin bioluminescence for Ac-RCMLARVYRPC-NH2 (disulfide 2-11 (inferred)) [SEQ. ID. NO. 16 (Ala^10 analog of Ac-hMCH(6-16)-NH2)] ?
102

Quick one: Activation %, aequorin bioluminescence for Ac-RCMLNRVYRPC-NH2 (disulfide 2-11 (inferred), also called Asn^10 peptide) [SEQ. ID. NO. 25 (Asn^10 analog of Ac-hMCH(6-16)-NH2)] ?
86

Quick one: Activation %, aequorin bioluminescence for Ac-RCMLPRVYRPC-NH2 (disulfide 2-11 (inferred)) [SEQ. ID. NO. 22 (Pro^10 analog of Ac-hMCH(6-16)-NH2)] ?
13
